Source listed as the supplement of paper PMC12317010.

# Measurement Description: collision cross section in nitrogen (drift tube, single-field); higher = larger gas-phase ion size;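 further: chemical standards at 10 µM analysed by drift tube IMS-QTOF MS in about 3.95 torr nitrogen, mean of duplicate injections differing ≤1%, mass error below 10 ppm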
# Stated Conditions: ion type: [M+H]; ion source: APCI; ion mode: Positive
Measurement Kind: collision cross section in nitrogen (Å²)
Answers are plain numbers, in Å².

For orientation, consider the following solved cases.
• Cc1ccc2c(c1N)C(=O)c1ccccc1C2=O = 153.6
• O=P(c1ccccc1)(c1ccccc1)c1ccccc1 [Triphenylphosphine oxide] = 163
• CC1(C)CCC(Cc2ccc(Cl)cc2)C1(O)Cn1cncn1 (stereo unspecified) = 169.3
• CN(c1nccc(=O)[nH]1)C1CCN(c2nc3ccccc3n2Cc2ccc(F)cc2)CC1 = 204.1
• CCCC(Cn1cncn1)c1ccc(Cl)cc1Cl (stereo unspecified) = 166.3

Fill in collision cross section in nitrogen for each of the 4 compounds listed.
1. CNC(=C[N+](=O)[O-])NCCSCc1csc(CN(C)C)n1
2. O=[N+]([O-])c1cc(N(CCO)CCO)ccc1NCCO
3. Cc1ccc(N2C(=O)C=CC2=O)cc1N1C(=O)C=CC1=O [Toluene-2,4-dimaleimide]
4. Nc1ccc(N)c2c1C(=O)c1ccccc1C2=O

[171.3, 171.3, 163.3, 151.4]

Fill in collision cross section in nitrogen for each of the 4 compounds listed.
1. CCN(CCC#N)c1ccc(N=Nc2ccc([N+](=O)[O-])cc2)cc1
2. Cc1[nH]c(=O)c(C#N)cc1-c1ccncc1
3. O=c1[nH]c2ccc(S(=O)CCN3CCC(Cc4ccc(F)cc4)CC3)cc2o1 (stereo unspecified)
4. O=C(N[C@@H](Cc1ccccc1)[C@@H](O)C(=O)N1C[C@@H](O)[C@@H](O)C1)c1cc2cc(Cl)ccc2[nH]1

[188.5, 157.1, 203.6, 215.9]

Fill in collision cross section in nitrogen for each of the 4 compounds listed.
1. CO/C=C(/C(=O)OC)c1ccccc1Oc1cc(Oc2ccccc2C#N)ncn1
2. O=C(O)C[C@H](O)C[C@H](O)/C=C/c1c(C2CC2)nc2ccccc2c1-c1ccc(F)cc1
3. CC1(C)S[C@@H]2[C@H](NC(=O)COc3ccccc3)C(=O)N2[C@H]1C(=O)O
4. Fc1ccccc1[C@@H](F)CO[C@H]1CC[C@H](Nc2[nH]cnc3nncc2-3)CC1

[196.5, 202.3, 182, 187.8]

Fill in collision cross section in nitrogen for each of the 6 compounds listed.
1. CCOP(=O)(OCC)OC(=CCl)c1ccc(Cl)cc1Cl
2. Cc1c(N(C)C)c(=O)n(-c2ccccc2)n1C [4-Dimethylaminoantipyrine]
3. CCCCCCCCCCCCN1CCOCC1
4. c1ccc(-c2nc3ccccc3[nH]2)cc1
5. O=[N+]([O-])c1c2ccccc2cc2ccccc12
6. CN(C)CCOC(C)(c1ccccc1)c1ccccn1 (stereo unspecified) [Doxylamine succinate]

1. 168.7
2. 152.1
3. 176.3
4. 142.8
5. 145.5
6. 162
